- TARGET SYSTEM: Rat NPY5 receptor (Rattus norvegicus)
- Sequence (Q63634 whole entry): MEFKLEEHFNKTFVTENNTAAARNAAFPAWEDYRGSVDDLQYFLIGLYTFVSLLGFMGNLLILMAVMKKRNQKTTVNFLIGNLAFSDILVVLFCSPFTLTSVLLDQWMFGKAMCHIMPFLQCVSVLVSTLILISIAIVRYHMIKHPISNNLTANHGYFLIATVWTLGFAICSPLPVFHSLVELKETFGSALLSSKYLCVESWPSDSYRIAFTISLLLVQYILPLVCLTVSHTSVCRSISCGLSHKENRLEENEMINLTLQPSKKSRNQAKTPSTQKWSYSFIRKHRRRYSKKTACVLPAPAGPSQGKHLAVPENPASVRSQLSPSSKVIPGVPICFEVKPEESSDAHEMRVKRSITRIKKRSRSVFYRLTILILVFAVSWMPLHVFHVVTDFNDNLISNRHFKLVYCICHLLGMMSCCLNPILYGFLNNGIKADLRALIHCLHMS
- TEST DESCRIPTION: Rat NPY5 receptor binding assay ([125I]PYY, membrane protein)
- CONDITION DESCRIPTION: [125I]PYY, read-out: rNPY5 IC50

{"COMPOUND": "Cl.O=C(CN1CCC(n2c(=O)[nH]c3ccccc32)CC1)Nc1ccc2c(c1)C(=O)c1ccccc1-2 [Compound 306, hydrochloride]", "IC50 [nM]": 35}
{"COMPOUND": "Nc1cc(S(=O)(=O)c2ccccc2)ccc1NC(=O)CN1CCC(n2c(=O)[nH]c3ccccc32)CC1 [Compound 335, reference compound]", "IC50 [nM]": 98}
{"COMPOUND": "O=C(CNCCCn1c(=O)[nH]c2ccccc21)Nc1ccc(-c2ccccc2)cc1", "IC50 [nM]": 1600}
{"COMPOUND": "O=C(CN1CCCC1C(O)(c1ccccc1)c1ccccc1)Nc1ccc(C2CCCCC2)cc1 (centres unmarked)", "IC50 [nM]": 43}
{"COMPOUND": "O=C(CN1CCC(n2c(=O)[nH]c3ccccc32)CC1)Nc1ccc2c(c1)-c1ccccc1C2=O", "IC50 [nM]": 0.4}
{"COMPOUND": "O=C(CN1CCN(c2ccccc2)CC1)Nc1ccc(C2CCCCC2)cc1", "IC50 [nM]": 210}
{"COMPOUND": "CC(=O)NC1CCN(CC(=O)Nc2ccc(C3CCCCC3)cc2)C1 (centres unmarked)", "IC50 [nM]": 19}
{"COMPOUND": "O=C(CN1CCC(n2c(=O)[nH]c3ccccc32)CC1)Nc1cccc2c1-c1ccccc1C2=O", "IC50 [nM]": 300}

Value source: patent US6410792B1
